Sourced from the supplement of paper PMC6555819

- System: PPARg:RXRa 270nM:90nM, anti-RXR (NR concentration 270 nM, RXRa partner concentration 90 nM)
- assay protocol: PBM binding z-score (relative to random genomic background probes); higher = stronger binding; sequences stand for … in GC…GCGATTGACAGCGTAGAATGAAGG

record sequence | PBM binding z-score
TTACCGAGGTGAGCTGAGGTCGTTGATCCAACTC | 0.915
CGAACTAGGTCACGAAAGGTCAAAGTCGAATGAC | 8.46
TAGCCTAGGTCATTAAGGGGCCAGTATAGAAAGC | 2.07
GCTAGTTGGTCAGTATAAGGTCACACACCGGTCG | 2.09
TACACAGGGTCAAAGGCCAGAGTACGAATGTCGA | 7.03
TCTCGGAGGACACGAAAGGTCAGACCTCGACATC | 2.68
GCTGCTAGATCAGGTTGGTCAGCTAACGGGTACG | -1.02
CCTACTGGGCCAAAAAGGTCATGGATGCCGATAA | 4.82
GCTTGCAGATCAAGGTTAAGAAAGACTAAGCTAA | 0.872
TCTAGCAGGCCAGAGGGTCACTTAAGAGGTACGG | 2.96
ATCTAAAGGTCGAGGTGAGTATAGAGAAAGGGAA | 4.02
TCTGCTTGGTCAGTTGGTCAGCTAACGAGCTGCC | 0.771
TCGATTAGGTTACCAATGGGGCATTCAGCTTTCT | 1.5
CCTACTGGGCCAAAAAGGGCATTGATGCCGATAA | 1.32
AGTCAAAGTTCACTAGGTAACGCAAGATTCAGCT | 6.82
ATCTCTAGGTAAAAGCTCAGTGAATCCCGAGGAT | 2.55
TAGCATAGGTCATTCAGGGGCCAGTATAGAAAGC | 4.27
ACTAGCAGGCCAAGTTTGGGTCACCCAAACAAAG | 0.213
CGTCCAAGGTCTATGCTAGGTCAGTGAAAGCATT | -0.288
CCTTACGGGTCAAGGTTAAAGCACGGGTGGTACG | 5.34
GATACCGGGTCAAGGCCAGAGTACGCGTATTGAT | 4.57

###

- Test system: PPARg DBDmut IVT, anti-PPARg (DBD mutation: PPARg1 K132A/R137A, NR concentration 270 nM)
- assay protocol: PBM binding z-score (relative to random genomic background probes); higher = stronger binding; sequences stand for … in GC…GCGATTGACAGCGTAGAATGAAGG
Label T when PBM binding z-score is at or above 1; otherwise label F.

record sequence | assay target | label value
AGAACGGGGGCAATGAGTTGATAGCACGGGTGGC | PPARg DBDmut IVT, anti-PPARg (DBD mutation: PPARg1 K132A/R137A, NR concentration 270 nM) | T
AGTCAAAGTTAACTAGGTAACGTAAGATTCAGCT | PPARg DBDmut IVT, anti-PPARg (DBD mutation: PPARg1 K132A/R137A, NR concentration 270 nM) | T
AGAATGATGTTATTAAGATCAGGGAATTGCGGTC | PPARg DBDmut IVT, anti-PPARg (DBD mutation: PPARg1 K132A/R137A, NR concentration 270 nM) | F
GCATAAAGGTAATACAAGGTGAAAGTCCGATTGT | PPARg DBDmut IVT, anti-PPARg (DBD mutation: PPARg1 K132A/R137A, NR concentration 270 nM) | F
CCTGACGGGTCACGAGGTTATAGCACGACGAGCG | PPARg DBDmut IVT, anti-PPARg (DBD mutation: PPARg1 K132A/R137A, NR concentration 270 nM) | F
